Experiment: qHTS of pediatric cancer cell lines to identify multiple opportunities for drug repurposing: Primary screen for U-2 OS cells (AID 1347096); further: nearly all actives have a fitted effect of over 50% in size; further: potency means the concentration at half of the fitted maximal effect
Conditions: U-2 OS viability, CellTiter-Glo luminescence, 48 h; series mostly up to 46 µM
Results filed as inconclusive are left out. The source made the active and inactive calls. The call rests on the fitted dose curve; in most records, active means well fitted cell-killing curve with a large enough effect; inconclusive means small, poorly fitted or top-dose-only effect; inactive means flat fitted curve, though single readings scatter.
Experimental Endpoint: Potency

# Compound, Reported Value
data = [
    ("O=C(C=Cc1c(C(=O)O)[nH]c2cc(Cl)cc(Cl)c12)Nc1ccccc1", "inactive"),
    ("CCS(=O)(=O)c1cccc(-c2cc(C(=O)NC3CCN(C)CC3)c(C)c3[nH]c4ncc(C)cc4c23)c1", "14.8 µM (active)"),
    ("Cc1cc(N2CCOCC2)cc2[nH]c(-c3c(NC[C@@H](O)c4cccc(Cl)c4)cc[nH]c3=O)nc12", "18.7 µM (active)"),
    ("O=C(Cc1ccc(-c2ccc(OCCN3CCOCC3)cc2)cn1)NCc1ccccc1", "3.72 µM (active)"),
    ("Cn1c2cc(S(C)=O)sc2c2cnn(Cc3cccc(N)c3)c(=O)c21 (centres undefined)", "inactive"),
]

Ask | Fill in reported Potency for this entry: `O=C(CCCCCCNC(=O)c1cnc(N(c2ccccc2)c2ccccc2)nc1)NO`
Reply | inactive

Ask | Fill in reported Potency for this entry: `NC(=O)Nc1cc(-c2cccc(F)c2)sc1C(=O)N[C@H]1CCCNC1`
Reply | 0.935 µM (active)

Ask | Fill in reported Potency for this entry: `CC=CC1=C(C(=O)O)N2C(=O)[C@H](NC(=O)[C@H](N)c3ccc(O)cc3)[C@@H]2SC1`
Reply | inactive

Ask | Fill in reported Potency for this entry: `Cc1cnc(Nc2ccc(F)cc2Cl)nc1-c1c[nH]c(C(=O)N[C@H](CO)c2cccc(Cl)c2)c1`
Reply | 7.43 µM (active)
